MEASURED_TARGET: human plasma kallikrein (human, UniProt P03952 20-390; P03952 391-638)
Sequence (P03952 20-390, chain 1 of 2): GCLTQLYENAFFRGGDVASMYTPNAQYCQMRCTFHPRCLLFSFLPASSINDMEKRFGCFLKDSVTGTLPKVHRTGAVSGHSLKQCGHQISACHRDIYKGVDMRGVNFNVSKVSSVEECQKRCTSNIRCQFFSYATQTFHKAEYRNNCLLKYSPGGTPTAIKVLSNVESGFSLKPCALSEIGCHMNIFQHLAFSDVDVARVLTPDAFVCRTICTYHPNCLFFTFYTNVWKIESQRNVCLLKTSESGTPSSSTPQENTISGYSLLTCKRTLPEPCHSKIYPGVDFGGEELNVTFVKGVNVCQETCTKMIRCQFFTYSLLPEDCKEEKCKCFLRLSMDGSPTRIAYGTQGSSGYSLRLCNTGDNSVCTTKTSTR
Sequence (P03952 391-638, chain 2 of 2): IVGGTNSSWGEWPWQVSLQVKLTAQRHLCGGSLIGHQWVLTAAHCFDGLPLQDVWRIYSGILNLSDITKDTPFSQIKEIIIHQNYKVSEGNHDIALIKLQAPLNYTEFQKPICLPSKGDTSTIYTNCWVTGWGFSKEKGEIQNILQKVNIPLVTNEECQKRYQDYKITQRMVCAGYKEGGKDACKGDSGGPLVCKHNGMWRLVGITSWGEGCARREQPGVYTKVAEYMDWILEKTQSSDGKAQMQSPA
TEST_SUMMARY: cell-based or functional assay
PARAMETER_MEASURED: % inhibition at 10 nM (%)
Express the result in % but write the number alone.

| BINDER | MEASUREMENT |
| --- | --- |
| M204-A02 (Fab, V domains shown) VH: EVQLLESGGGLVQPGGSLRLSCAASGFTFSDYMMTWVRQAPGKGLQWVSYISPSGGLTSYADSVKGRFTISRDNSKNTLYLQMNSLRAEDTAVYYCARVARGIAARSRTSYFDYWGQGTLVTVSS VL: DIQMTQSPGTLSLSPGERATLSCRTSQFVNSNYLAWYQQTPGQAPRLLIYGASSRATGIPDRFSGTGYGTDFTLTISRLEPEDYGTYYCQQSSRTPWTFGQGTRVEIK | 89.5 |
| M206-C03 (Fab, V domains shown) VH: EVQLLESGGGLVQPGGSLRLSCAASGFTFSQYMMVWVRQAPGKGLEWVSSIYSSGGNTPYADSVKGRFTISRDNSKNTLYLQMNSLRAEDTAVYYCARVARGIAARSRTSYFDYWGQGTLVTVSS VL: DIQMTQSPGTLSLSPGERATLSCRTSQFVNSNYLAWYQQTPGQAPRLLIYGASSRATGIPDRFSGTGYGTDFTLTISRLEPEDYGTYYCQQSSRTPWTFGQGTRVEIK | 65.5 |

Q: Fill in the blank: the reported % inhibition at 10 nM of M210-G04 (Fab, V domains shown, Tested as Fab; printed HC runs into CH1; amber q written Q) VH: EVQLLESGGGLVQPGGSLRLSCAASGFTFSHYLMTWVRQAPGKGLEWVSYISPSGGHTIYADSVKGRFTISRDNSKNTLYLQMNSLRAEDTAVYYCARVATGIVARSRTRYFDQWGQGTLVTVSS VL: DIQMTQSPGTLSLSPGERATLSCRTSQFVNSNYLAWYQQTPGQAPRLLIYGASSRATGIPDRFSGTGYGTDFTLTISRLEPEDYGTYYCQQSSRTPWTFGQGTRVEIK is ____.
Ans: 94.2
